- studySystem: BRG-1 (Homo sapiens, UniProt P51532)
- Construct: made in house; host or cells: High Five insect cells
- Sequence (P51532 whole entry): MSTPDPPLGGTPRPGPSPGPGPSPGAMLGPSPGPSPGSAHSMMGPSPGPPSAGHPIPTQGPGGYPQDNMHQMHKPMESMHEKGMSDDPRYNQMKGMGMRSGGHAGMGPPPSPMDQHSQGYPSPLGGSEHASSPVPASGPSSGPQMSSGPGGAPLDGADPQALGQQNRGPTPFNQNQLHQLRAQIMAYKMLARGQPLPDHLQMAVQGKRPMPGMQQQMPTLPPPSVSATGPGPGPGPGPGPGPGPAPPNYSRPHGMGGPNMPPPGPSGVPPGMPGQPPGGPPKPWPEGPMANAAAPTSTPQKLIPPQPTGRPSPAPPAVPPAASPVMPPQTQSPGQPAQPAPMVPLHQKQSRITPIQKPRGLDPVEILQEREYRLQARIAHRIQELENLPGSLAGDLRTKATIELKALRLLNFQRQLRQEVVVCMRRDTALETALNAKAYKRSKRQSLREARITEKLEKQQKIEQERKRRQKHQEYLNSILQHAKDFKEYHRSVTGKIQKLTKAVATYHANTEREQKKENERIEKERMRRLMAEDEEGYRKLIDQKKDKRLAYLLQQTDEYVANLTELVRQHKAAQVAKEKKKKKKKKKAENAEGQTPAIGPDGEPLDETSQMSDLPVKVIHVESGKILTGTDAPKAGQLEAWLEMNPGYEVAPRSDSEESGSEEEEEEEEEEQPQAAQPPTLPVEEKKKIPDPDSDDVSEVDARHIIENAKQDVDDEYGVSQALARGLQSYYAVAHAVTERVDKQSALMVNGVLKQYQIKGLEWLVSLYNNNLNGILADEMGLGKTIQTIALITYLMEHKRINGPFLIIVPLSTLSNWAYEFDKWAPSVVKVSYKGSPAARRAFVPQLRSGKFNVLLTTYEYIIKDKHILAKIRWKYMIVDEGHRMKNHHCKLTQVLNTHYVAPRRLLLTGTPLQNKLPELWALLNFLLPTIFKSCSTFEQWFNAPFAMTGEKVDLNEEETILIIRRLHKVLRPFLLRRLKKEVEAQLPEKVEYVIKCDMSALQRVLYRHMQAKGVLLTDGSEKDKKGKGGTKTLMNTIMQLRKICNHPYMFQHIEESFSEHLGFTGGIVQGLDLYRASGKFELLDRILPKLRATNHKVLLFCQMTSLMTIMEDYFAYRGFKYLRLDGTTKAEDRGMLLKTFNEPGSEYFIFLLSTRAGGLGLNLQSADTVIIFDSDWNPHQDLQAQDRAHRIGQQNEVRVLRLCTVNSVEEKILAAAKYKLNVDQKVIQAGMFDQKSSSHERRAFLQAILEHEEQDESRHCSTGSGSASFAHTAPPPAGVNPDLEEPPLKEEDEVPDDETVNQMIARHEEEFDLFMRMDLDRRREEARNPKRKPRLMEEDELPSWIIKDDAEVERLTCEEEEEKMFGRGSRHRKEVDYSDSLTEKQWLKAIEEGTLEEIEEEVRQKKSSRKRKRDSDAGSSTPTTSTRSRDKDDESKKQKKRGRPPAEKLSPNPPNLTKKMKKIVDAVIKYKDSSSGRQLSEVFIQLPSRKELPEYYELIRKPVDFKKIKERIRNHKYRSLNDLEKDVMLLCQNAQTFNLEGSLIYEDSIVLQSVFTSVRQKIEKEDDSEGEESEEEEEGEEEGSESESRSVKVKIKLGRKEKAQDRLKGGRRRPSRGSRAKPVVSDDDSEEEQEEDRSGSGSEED
- protocolNotes: ATPase catalytic activity assay of BRG-1 (ADP-Glo)
- Assay type: biochemical
- conditionParameters: 30 nM BRG-1, 400 μM ATP, 20 nM salmon sperm DNA, 1 hour at room temperature; read-out: BRG1 ATPase: IC50
Listed here are molecules together with their documented IC50.

Check out these entries, answers already filled in.
> print(dat)
                               samplesmiles  testreadout       testvalue
1  CC(C)(C)n1ccc(C(=O)NCc2nc3ccc(-c4ccc5scnc5c4)cc3[nH]2)c1         IC50  0.01 to 0.1 µM
2  C[C@H](NC(=O)c1ccn(S(C)(=O)=O)c1)c1nc2ccc(-c3cccc(-c4ccncc4)c3)nc2[nH]1         IC50  0.01 to 0.1 µM
3  CC(C)(C)n1ccc(C(=O)NCc2nc3ccc(-c4ccc(C#N)cc4)cc3[nH]2)c1         IC50     0.1 to 1 µM
4  CC(C)(C)n1ccc(C(=O)NCc2nc3ccc(-c4cncc5ccccc45)cc3[nH]2)c1         IC50     0.1 to 1 µM
5  CC(C)(C)n1ccc(C(=O)NCc2nc3ccc(-c4ccc(-n5cccn5)cc4)cc3[nH]2)c1         IC50     0.1 to 1 µM

Read off the recorded IC50 for Cn1cc(-c2cccc(-c3ccc4cnc(CNC(=O)c5ccn(S(C)(=O)=O)c5)cc4n3)c2)cn1
0.1 to 1 µM

Read off the recorded IC50 for CC(C)(C)n1ccc(C(=O)NCc2nc3ccc(-c4ccc5c(c4)OCO5)cc3[nH]2)c1
0.1 to 1 µM

Read off the recorded IC50 for CS(=O)(=O)n1ccc(C(=O)NCc2nc3ccc(-c4cccc(-c5ccncc5)c4)nc3[nH]2)c1
0.01 to 0.1 µM

Origin of the recorded values: patent US12649737B2
